Molecular target: EcoRI restriction endonuclease (UniProt P00642 1-277)
Sequence (P00642 whole entry): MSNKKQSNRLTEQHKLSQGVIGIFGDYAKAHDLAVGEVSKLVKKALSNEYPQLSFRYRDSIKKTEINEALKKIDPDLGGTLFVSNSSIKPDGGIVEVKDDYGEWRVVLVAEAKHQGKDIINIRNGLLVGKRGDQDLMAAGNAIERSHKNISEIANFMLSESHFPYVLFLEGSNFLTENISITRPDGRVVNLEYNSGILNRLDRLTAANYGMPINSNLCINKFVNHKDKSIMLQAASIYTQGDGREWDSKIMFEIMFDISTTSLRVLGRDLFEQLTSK
Assay: nanopore rupture with qPCR
READOUT_KIND: binding signal

Query :: Consider the binder 105 bp TTAATTC (first base G to T) (dsDNA) DNA 1: TAAGTTGGGTAACGCCAGGGTTTTCCCAGTCACGACGTTGTAAAACGACGGCCAGTTAATTCGAGCTCGGTACCCGGGGATCCTCTAGAGTCGACCTGCAGGCAT DNA 2: ATGCCTGCAGGTCGACTCTAGAGGATCCCCGGGTACCGAGCTCGAATTAACTGGCCGTCGTTTTACAACGTCGTGACTGGGAAAACCCTGGCGTTACCCAACTTA and give its measured binding signal.
Result :: 1.16 V (threshold voltage)

Query :: Follow-up item: 105 bp cognate TGAATTC (dsDNA) DNA 1: TAAGTTGGGTAACGCCAGGGTTTTCCCAGTCACGACGTTGTAAAACGACGGCCAGTGAATTCGAGCTCGGTACCCGGGGATCCTCTAGAGTCGACCTGCAGGCAT DNA 2: ATGCCTGCAGGTCGACTCTAGAGGATCCCCGGGTACCGAGCTCGAATTCACTGGCCGTCGTTTTACAACGTCGTGACTGGGAAAACCCTGGCGTTACCCAACTTA
Result :: 2.09 V (threshold voltage)
